test system: blackgrass (Alopecurus myosuroides); assay: Test B pre-/postemergence plant response; format: in vivo; details: Postemergence, 31 g ai/ha; 0 to 100 scale (0 no effect, 100 complete control)
# maps each entry to its Plant response rating, Blackgrass
API doc: respond with a numeric literal and nothing else, no unit.

Here is how some molecules turned out for Plant response rating, Blackgrass.
> print(dat)
                                   molecule                   measurement.type  measured
1  O=C1CCCC(O)=C1C(=O)c1cnc(-c2cccs2)n(C2CCCCC2)c1=O  Plant response rating, Blackgrass         0
2  CCn1c(-c2ccccc2)ncc(C(=O)C2=C(O)C3CCC(C3)C2=O)c1=O (stereo not shown)  Plant response rating, Blackgrass         5
3  CCc1ccccc1-n1c(-c2ccccc2)ncc(C(=O)C2=C(O)CCCC2=O)c1=O  Plant response rating, Blackgrass         5

If you can, please state the reported Plant response rating, Blackgrass value of O=C1CCCC(O)=C1C(=O)c1cnc(-c2ccccc2)n(C2CCCC2)c1=O .
0

====

Test system: soybean (Glycine max)
Assay: Test B pre-/postemergence plant response
Assay type: in vivo
Details: Postemergence, 125 g ai/ha; scale 0 to 100 (0 no effect, 100 complete control)
Source text: […] Treated plants and controls were maintained in a greenhouse for 13 to 15 days, after which time all treated plants were visually evaluated and compared to controls. […]
Measurement type: Plant response rating, Soybean

If you can, please state the reported Plant response rating, Soybean value of COCCn1c(-c2cc(F)cc(F)c2)ncc(C(=O)C2=C(O)CCCC2=O)c1=O [Compound 119] .
60

If you can, please state the reported Plant response rating, Soybean value of O=C1CCCC(O)=C1C(=O)c1cnc(-c2ccccc2)n(C2CCSCC2)c1=O [Compound 164] .
100

If you can, please state the reported Plant response rating, Soybean value of COCCn1c(-c2cccc(C)c2)ncc(C(=O)C2=C(O)CCCC2=O)c1=O [Compound 117] .
95

If you can, please state the reported Plant response rating, Soybean value of CCCn1c(-c2cc(F)cc(F)c2)ncc(C(=O)C2=C(O)CCCC2=O)c1=O [Compound 152] .
98

If you can, please state the reported Plant response rating, Soybean value of CCCCn1c(-c2cc(F)cc(F)c2)ncc(C(=O)C2=C(O)CCCC2=O)c1=O [Compound 121] .
95

====

# maps each entry to its Plant response rating, Windgrass
tested on: windgrass (Apera spica-venti); assay: Test B postemergence plant response; format: in vivo; details: Postemergence, 250 g ai/ha; scale 0 to 100 (0 no effect, 100 complete control); 13 to 15 days
API doc: respond with a numeric literal and nothing else, no unit.

Here is how some compounds turned out for Plant response rating, Windgrass.
> print(dat)
                                   compound  measured
1  CCc1ccccc1-n1c(-c2ccccc2)ncc(C(=O)C2=C(O)CCCC2=O)c1=O        95
2  COCCn1c(-c2cccc(F)c2)ncc(C(=O)C2=C(O)C3CCC(C3)C2=O)c1=O (stereo not drawn)        98
3  O=C1CCCC(O)=C1C(=O)c1cnc(-c2cccs2)n(C2CCCCC2)c1=O        80
4  CCCn1c(-c2cc(F)cc(F)c2)ncc(C(=O)C2=C(O)CCCC2=O)c1=O        98
5  CCCCn1c(-c2cc(F)cc(F)c2)ncc(C(=O)C2=C(O)C3CCC(C3)C2=O)c1=O (stereo not drawn)        98

If you can, please state the reported Plant response rating, Windgrass value of O=C1CCCC(O)=C1C(=O)c1cnc(-c2ccc(F)cc2)n(C2CCCCC2)c1=O .
98
